Target: Cyclin-dependent kinase 8 (Homo sapiens)
Sequence (P49336 whole entry): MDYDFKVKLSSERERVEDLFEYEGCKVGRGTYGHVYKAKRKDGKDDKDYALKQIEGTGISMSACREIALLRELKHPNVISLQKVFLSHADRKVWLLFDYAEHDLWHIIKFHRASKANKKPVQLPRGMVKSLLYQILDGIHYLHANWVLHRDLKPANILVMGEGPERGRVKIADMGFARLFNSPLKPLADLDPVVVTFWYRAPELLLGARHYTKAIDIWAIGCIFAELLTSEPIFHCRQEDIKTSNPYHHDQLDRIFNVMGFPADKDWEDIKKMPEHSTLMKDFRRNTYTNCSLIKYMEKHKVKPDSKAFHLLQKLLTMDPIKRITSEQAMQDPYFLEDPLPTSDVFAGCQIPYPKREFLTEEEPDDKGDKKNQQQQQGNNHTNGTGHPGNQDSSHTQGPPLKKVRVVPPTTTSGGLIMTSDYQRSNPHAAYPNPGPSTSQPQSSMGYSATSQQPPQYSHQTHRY
Test: Inhibition of CDK8 (unknown origin) at 200 nM incubated in presence of ATP by ADP-Glo kinase assay relative to control
Mark -1 for inhibition values under 70%, and 1 for everything at or above.

Smiles Text: Cc1ccccc1NC(=O)NCCc1cccc(-c2cnc3[nH]ccc3c2)c1
Label Class: -1

Smiles Text: O=C(NCCc1cccc(-c2cnc3[nH]ccc3c2)c1)Nc1cccc(C(F)(F)F)c1F
Label Class: -1

Smiles Text: O=C(NCCc1cccc(-c2cnc3[nH]ccc3c2)c1)c1cccc(F)c1
Label Class: -1

Smiles Text: Cn1ncc2cc(-c3cncc(Cl)c3N3CCC4(CCNC4=O)CC3)ccc21
Label Class: 1

###

Assay: Selectivity ratio of GI50 for antiproliferative activity against mouse CT26 cells to GI50 for cytotoxicity against human GES1 cells
Assay type: toxicity, cell-based
Conditions: CT26 cells and GES1 cells, read-out: RatioGI50
Parameter: selectivity ratio. Scope: all listed entries.

Molecule: Cn1ncc2cc(-c3cncc(Cl)c3N3CCC4(CCNC4=O)CC3)ccc21
selectivity ratio: < 15

Molecule: Cc1c(Br)c(Br)c2c3c1nc(N1CCNCC1)n3CCC2 [SEL-120]
selectivity ratio: < 15

###

System: SW480
Assay: Antiproliferative activity against human SW480 cells assessed as cell growth inhibition measured after 48 hrs by MTT assay
Assay type: functional
Quantity Measured: GI50 (µM)

Smiles Text: CNC(=O)c1cc(Oc2ccc(NC(=O)Nc3ccc(Cl)c(C(F)(F)F)c3)cc2)ccn1
Target Under Test: SW480
Relational Operator: =
Value: 15.6
--
Smiles Text: Cc1c(Br)c(Br)c2c3c1nc(N1CCNCC1)n3CCC2
Target Under Test: SW480
Relational Operator: =
Value: 17.7
--
Smiles Text: Cc1ccc(NC(=O)Cc2cccc(-c3cnc4[nH]ccc4c3)c2)cc1C(F)(F)F
Target Under Test: SW480
Relational Operator: >
Value: 100
--
Smiles Text: Cn1ncc2cc(-c3cncc(Cl)c3N3CCC4(CCNC4=O)CC3)ccc21
Target Under Test: SW480
Relational Operator: =
Value: 1.8
--
Smiles Text: O=C(CCc1cccc(-c2cnc3[nH]ccc3c2)c1)Nc1ccc(NCCN2CCOCC2)c(C(F)(F)F)c1
Target Under Test: SW480
Relational Operator: =
Value: 5.9
--
Smiles Text: O=C(NCCc1cccc(-c2cnc3[nH]ccc3c2)c1)c1ccc(Cl)c(C(F)(F)F)c1
Target Under Test: SW480
Relational Operator: >
Value: 100

###

Assay: Selectivity ratio of GI50 for antiproliferative activity against human HCT-116 cells to GI50 for cytotoxicity against human GES1 cells
Format: toxicity, cell-based
Conditions: HCT-116 cells and GES1 cells, read-out: RatioGI50

Compound: Cc1c(Br)c(Br)c2c3c1nc(N1CCNCC1)n3CCC2 [SEL-120]
selectivity ratio: < 15

Compound: Cn1ncc2cc(-c3cncc(Cl)c3N3CCC4(CCNC4=O)CC3)ccc21
selectivity ratio: < 15

###

Parameter: inhibition. Scope: all listed entries.
Target: Cyclin-dependent kinase 8 (Homo sapiens)
Experiment: Inhibition of CDK8 (unknown origin) at 200 nM incubated in presence of ATP by ADP-Glo kinase assay relative to control

Smiles Text: O=C(NCCc1cccc(-c2cnc3[nH]ccc3c2)c1)c1ccc(Cl)c(C(F)(F)F)c1
inhibition (%): 64.7
//
Smiles Text: Cc1cccc(NC(=O)NCCc2cccc(-c3cnc4[nH]ccc4c3)c2)c1
inhibition (%): 22.6
//
Smiles Text: O=C(CCc1cccc(-c2cnc3[nH]ccc3c2)c1)Nc1ccc(NCCCN2CCOCC2)c(C(F)(F)F)c1
inhibition (%): 24.1
//
Smiles Text: O=C(NCCc1cccc(-c2cnc3[nH]ccc3c2)c1)Nc1cccc(Cl)c1
inhibition (%): 69.3
//
Smiles Text: O=C(Cc1cccc(-c2cnc3[nH]ccc3c2)c1)Nc1ccc(Cl)c(C(F)(F)F)c1
inhibition (%): 38.9
//
Smiles Text: O=C(NCCc1cccc(-c2cnc3[nH]ccc3c2)c1)c1cccc(C(F)(F)F)c1
inhibition (%): 6.1
//
Smiles Text: O=C(NCCc1cccc(-c2cnc3[nH]ccc3c2)c1)Nc1cccc(F)c1
inhibition (%): 50.8
//
Smiles Text: COc1cccc(C(=O)NCCc2cccc(-c3cnc4[nH]ccc4c3)c2)c1
inhibition (%): 47.9
